This collection of values is drawn from PubChem BioAssay (NCI).

- Tested on: 786-0 renal
- assayInfo: NCI tumour cell line growth inhibition, 48 h
recordedMetric: TGI (µM)
Hi! Could you send only the number? It should be in µM, unit omitted.

>>> quantitativeresult("c1ccc2c(c1)-c1ccccc1C2NC1=NCCO1")
84.5

Turning to the following compound.
### Prompt Would you kindly share the measured TGI for `O[C@@]12Cc3c([nH]c4ccccc34)[C@@H]3Oc4c(-c5ccccc5)ccc5c4[C@@]31CCN(CC1CC1)[C@@H]2C5` ?
### Response 3.04

====

- Test system: EKVX NSCLC
- assayInfo: NCI tumour cell line growth inhibition, 48 h
Catalogue of molecules with associated TGI

>>> result("O=C(OCC(OC(=O)c1ccccc1)C1CC(C2(O)CCCCC2)C(=O)O1)c1ccccc1 (centres undefined)")
"> 25 µM"
>>> result("C[C@]12CC[C@@H]3c4ccc(OC(=O)N(CCCl)CCCl)cc4CC[C@H]3[C@@H]1CC[C@@H]2OP(=O)(O)O")
"> 100 µM"
>>> result("COC(=O)Cc1c(C2C(CC(=O)OC)c3ccccc3N2C2OC(CO)C(O)C(O)C2O)[nH]c2ccccc12 (centres undefined)")
"> 100 µM"
>>> result("COc1cc(OC)c(/C=N\\Nc2nc3ccccc3c(=O)n2-c2ccccc2)c(OC)c1")
"63.7 µM"
>>> result("COc1ccc(-c2cc(=O)c3cc(O)ccc3o2)c(OC)c1OC")
"> 100 µM"
>>> result("CCn1ncc(N=O)c1N")
"> 100 µM"

### Prompt Quick check: TGI on EKVX NSCLC, item `COc1ccc(/C=C\c2cc(OC)c(OC)c(OC)c2)c(NS(=O)(=O)c2ccc(F)cc2)c1O` ?
### Response > 100 µM

### Prompt Quick check: TGI on EKVX NSCLC, item `O=C1N[C@H](C(=O)O)[C@@H](c2ccc(OCc3ccccc3)cc2)O1` ?
### Response 89.1 µM

### Prompt Quick check: TGI on EKVX NSCLC, item `NS(=O)(=O)c1ccc(NC(=O)c2ccc3nc4ccccc4c(Nc4ccc(S(N)(=O)=O)cc4)c3c2)cc1` ?
### Response > 100 µM
